Recorded Endpoint: melting point

Examples with their reported melting point follow.
>>> assay_result("Cc1cc(F)ccc1-c1nc(C)c2nnc3cc(F)ccc3n12 [Example 27]")
"181 to 184 °C"
>>> assay_result("Cc1nc(CC(C)C)n2c1nnc1cc(F)c(F)cc12 [Example 59]")
"123 to 125.5 °C"
>>> assay_result("COc1cc2nnc3c(C)nc(-c4cc(C)ccc4Cl)n3c2cc1OC [Example 56]")
"247 to 249 °C"

Task: Quote melting point reported for Cc1nc(-c2cnccc2Cl)n2c1nnc1ccc(F)cc12 [Example 19] please.
Result: 141 to 144 °C

* * *

- Experimental Target: PDE2A (Homo sapiens, UniProt O00408)
- Construct: made in house; host or cells: SF21 insect cells (baculovirus)
- Sequence (O00408 whole entry): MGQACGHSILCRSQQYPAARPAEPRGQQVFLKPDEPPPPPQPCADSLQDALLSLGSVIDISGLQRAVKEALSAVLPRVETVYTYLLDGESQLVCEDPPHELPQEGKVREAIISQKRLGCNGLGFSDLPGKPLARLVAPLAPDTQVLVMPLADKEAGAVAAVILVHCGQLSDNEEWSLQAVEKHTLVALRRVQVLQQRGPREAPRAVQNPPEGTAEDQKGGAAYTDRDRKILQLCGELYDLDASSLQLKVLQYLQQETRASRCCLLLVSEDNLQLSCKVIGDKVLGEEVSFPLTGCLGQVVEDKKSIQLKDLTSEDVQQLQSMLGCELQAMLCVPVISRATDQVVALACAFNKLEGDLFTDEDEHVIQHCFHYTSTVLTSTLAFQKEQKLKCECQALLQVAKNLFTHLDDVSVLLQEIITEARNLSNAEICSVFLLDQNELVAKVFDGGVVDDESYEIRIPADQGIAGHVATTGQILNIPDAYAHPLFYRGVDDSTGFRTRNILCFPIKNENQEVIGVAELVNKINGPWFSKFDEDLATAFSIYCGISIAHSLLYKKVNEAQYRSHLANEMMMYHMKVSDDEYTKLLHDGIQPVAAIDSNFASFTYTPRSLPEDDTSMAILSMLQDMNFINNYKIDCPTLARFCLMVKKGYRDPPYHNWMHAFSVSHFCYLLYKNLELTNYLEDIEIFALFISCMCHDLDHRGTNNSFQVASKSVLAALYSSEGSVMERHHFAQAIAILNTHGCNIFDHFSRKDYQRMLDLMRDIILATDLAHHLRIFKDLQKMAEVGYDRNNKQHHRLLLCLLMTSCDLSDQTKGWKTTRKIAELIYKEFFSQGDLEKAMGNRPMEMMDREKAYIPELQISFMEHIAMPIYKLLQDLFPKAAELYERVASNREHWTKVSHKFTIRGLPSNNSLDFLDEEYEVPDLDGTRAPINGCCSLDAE
- Protocol Text: Inhibition of recombinant PDE2A (expressed in baculovirus/SF21-cells), [3H]-cAMP SPA
- Type: biochemical
- Experimental: Inhibition of Recombinant PDE2A (Expressed in Baculovirus/SF21-Cells) PDE2A (NM002599) was cloned and the gene was inserted in the baculovirus and the enzyme-protein expressed in SF21-cells. The enzyme was isolated from these cells by harvesting the cells by an centrifugation at 200 g to collect the cells. […] PDE2A activity was determined in a one step procedure in microtiterplates. […] One hour later the mixture was measured in a liquid scintillation counter for microtiterplates (Microbeta Trilux). […]
pIC50: −log10 of the molar value.
Recorded Endpoint: pIC50

>>> assay_result("COc1cc(F)c2nnc3c(C)nc(-c4cccnc4F)n3c2c1")
6.90
>>> assay_result("COc1cc(N2CCOCC2)cc2c1nnc1c(C)nc(-c3ccccc3C)n12")
6.96
>>> assay_result("COc1cc(F)c2nnc3c(C)nc(-c4cc(F)ccc4C)n3c2c1")
7.82
>>> assay_result("COc1cc(OC)c2nnc3c(C)nc(-c4c(C)n[nH]c4C)n3c2c1")
6.68
>>> assay_result("Cc1nc(-c2cc(OC(C)C)ccc2F)n2c1nnc1cc(F)ccc12")
6.26

P: COc1cccc(-c2nc(C)c3nnc4c(OC)cc(F)cc4n23)c1
Q: COc1cc(F)cc2c1nnc1c(C)nc(-c3cc(C(N)=O)ccc3F)n12
Task: I'm curious whether P or Q has the smaller pIC50 number. Which is it? Refer to your chosen item by its label in the answer.
Result: P
(P: 4.70, Q: 6.18)

* * *

- Experimental Target: PDE2A (Homo sapiens, UniProt O00408)
- Construct: made in house; host or cells: SF21 insect cells (baculovirus)
- Protocol Text: Inhibition of recombinant PDE2A (expressed in baculovirus/SF21-cells), [3H]-cAMP SPA
- Assay type: biochemical
pIC50: −log10 of the molar value.
Recorded Endpoint: pIC50

The examples below pair each entry with its known result.
>>> assay_result("COc1cc(F)cc2c1nnc1c(C)nc(-c3cc(F)ccc3C)n12")
6.36
>>> assay_result("COc1cc(F)c2nnc3c(C)nc(-c4cc(C(F)(F)F)ccc4Cl)n3c2c1")
7.22
>>> assay_result("COc1cc(F)c2nnc3c(C)nc(-c4ccc(C)cc4Cl)n3c2c1")
8.26

A: COc1ccc(Cl)c(-c2nc(C)c3nnc4ccc(F)cc4n23)c1
B: COc1cc(F)c2nnc3c(C)nc(-c4cccc(F)c4C)n3c2c1
Task: Task for the reader: decide whether A or B has the larger pIC50. // caller expects the label of the chosen entry
Result: A
(A: 7.70, B: 7.22)

1: Cc1nc(-c2cccc(Cl)c2Cl)n2c1nnc1ccc(F)cc12
2: Cc1nc(-c2ccccc2Cl)n2c1nnc1ccc(N3CCN(C)CC3)cc12
3: COc1cc(F)c2nnc3c(C)nc(-c4cc(Cl)ccc4OC)n3c2c1
4: Cc1nc(-c2cc(C(F)(F)F)ccc2F)n2c1nnc1cc(F)ccc12
Task: Your job: order these 4 records by pIC50, ascending. To answer, write out the labels according to the requested order.
Result: 4, 1, 3, 2
(4: 5.75, 1: 6.43, 3: 6.96, 2: 8.13)

I: Cc1nc(-c2cc(C(F)(F)F)ccc2F)n2c1nnc1ccc(F)cc12
II: COc1cccc2c1nnc1c(C)nc(-c3ccccc3C)n12
Task: Thinking about recorded pIC50 values, which is higher, I or II ? Give the chosen item's label as your response.
Result: II

P: Cc1ncccc1-c1nc(C)c2nnc3cc(F)ccc3n12
Q: COc1cc(F)cc2c1nnc1c(C)nc(-c3ccc(C)cc3F)n12
Task: Which has the smaller recorded pIC50, P or Q ? Mark your answer with the label of the selected entry.
Result: Q

A: COc1ccccc1-c1nc(C)c2nnc3c(OC)cc(F)cc3n12
B: COc1ccc(Cl)c(-c2nc(C)c3nnc4cc(F)ccc4n23)c1
C: COc1cc(F)c2nnc3c(C)nc(-c4ccccc4OC)n3c2c1
D: Cc1nc(-c2cc(C(F)(F)F)ccc2F)n2c1nnc1ccc(-c3cc(C(F)(F)F)ccc3F)cc12
E: Cc1nc(-c2ccnn2C)n2c1nnc1ccc(Cl)cc12
Task: Sort (5 molecules) by pIC50: min first. Answer format: list of labels, ordered as asked.
Result: C, E, A, D, B

// provenance: patent US20100120763A1
